Tested on: 266295-075-R-J1-PDC spheroid viability;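 also: spheroids exposed to compounds for seven days before readout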
experiment_summary: Anticancer human tumor 266295-075-R-J1-PDC patient-derived head and neck squamous carcinoma cell line growth inhibition [POLQ]
assay_setup: second compound 0.1 µM; first compound 1 µM; hits give low values; spheroids with HUVEC and MSC
# viability, T/C listing for each entry below
quantity: viability, T/C (%)

COc1cccc(OCCCN)c1-c1cc(Nc2cnc(C#N)cn2)n[nH]1 + Cc1cccc(N(C)C(=O)C2C(O)CCN2c2nc(C)cc(C(F)(F)F)c2C#N)c1 :: 62
CC(C)n1c(=O)n(C)c2cnc3cc(F)c(-c4ccc(OCCCN5CCCCC5)nc4)cc3c21 + Cc1cccc(N(C)C(=O)C2C(O)CCN2c2nc(C)cc(C(F)(F)F)c2C#N)c1 :: 83.4
CCc1cc2c(N3CCc4c(cc(Cn5ccnc5)cc4-c4cn(C)nc4C(F)(F)F)C3=O)cc(C)nc2c(OC)n1 + Cc1cccc(N(C)C(=O)C2C(O)CCN2c2nc(C)cc(C(F)(F)F)c2C#N)c1 :: 110
C=CC(=O)N1CCN(c2nc(=O)n(-c3c(C)ccnc3C(C)C)c3nc(-c4c(O)cccc4F)c(F)cc23)C(C)C1 (stereo not given) + Cc1cccc(N(C)C(=O)C2C(O)CCN2c2nc(C)cc(C(F)(F)F)c2C#N)c1 :: 115
COc1cc(C2c3cc4c(cc3C(OC3OC5COC(C)OC5C(O)C3O)C3COC(=O)C23)OCO4)cc(OC)c1O (stereo not given) + Cc1cccc(N(C)C(=O)C2C(O)CCN2c2nc(C)cc(C(F)(F)F)c2C#N)c1 :: 69.4
CNCc1ccc(-c2[nH]c3cc(F)cc4c3c2CCNC4=O)cc1 + Cc1cccc(N(C)C(=O)C2C(O)CCN2c2nc(C)cc(C(F)(F)F)c2C#N)c1 :: 84.2
CC1COCCN1c1cc(C2(O)CC3CCC(C2)O3)c2cnn(-c3ccn[nH]3)c2n1 (stereo not given) + Cc1cccc(N(C)C(=O)C2C(O)CCN2c2nc(C)cc(C(F)(F)F)c2C#N)c1 :: 46
O=C(Nc1ccc(O)c(NS(=O)(=O)c2ccc(F)cc2)c1)c1ccc(-c2ccccc2)cc1 + Nc1ccc(C#CCN(C(=O)Cc2ncc(C(F)(F)F)cc2C(F)(F)F)c2ccc(F)cc2)nn1 :: 118
CC1COCCN1c1cc(C2(O)CC3CCC(C2)O3)c2cnn(-c3ccn[nH]3)c2n1 (stereo not given) + Nc1ccc(C#CCN(C(=O)Cc2ncc(C(F)(F)F)cc2C(F)(F)F)c2ccc(F)cc2)nn1 :: 46.6
Nc1ccn(C2OC(CO)C(O)C2(F)F)c(=O)n1 (stereo not given) + Nc1ccc(C#CCN(C(=O)Cc2ncc(C(F)(F)F)cc2C(F)(F)F)c2ccc(F)cc2)nn1 :: 96.5
CCc1cc2c(N3CCc4c(cc(Cn5ccnc5)cc4-c4cn(C)nc4C(F)(F)F)C3=O)cc(C)nc2c(OC)n1 + Nc1ccc(C#CCN(C(=O)Cc2ncc(C(F)(F)F)cc2C(F)(F)F)c2ccc(F)cc2)nn1 :: 141
O=c1[nH]cc(F)c(=O)[nH]1 + Nc1ccc(C#CCN(C(=O)Cc2ncc(C(F)(F)F)cc2C(F)(F)F)c2ccc(F)cc2)nn1 :: 98
COc1cccc(OCCCN)c1-c1cc(Nc2cnc(C#N)cn2)n[nH]1 + Nc1ccc(C#CCN(C(=O)Cc2ncc(C(F)(F)F)cc2C(F)(F)F)c2ccc(F)cc2)nn1 :: 73.5
C=CCn1c(=O)c2cnc(Nc3ccc(N4CCN(C)CC4)cc3)nc2n1-c1cccc(C(C)(C)O)n1 + COC1C(OC(N)=O)C(O)C(Oc2ccc3c(O)c(NC(=O)c4ccc(O)c(CC=C(C)C)c4)c(=O)oc3c2C)OC1(C)C :: 95.6
COc1cc(C2c3cc4c(cc3C(OC3OC5COC(C)OC5C(O)C3O)C3COC(=O)C23)OCO4)cc(OC)c1O (stereo not given) + COC1C(OC(N)=O)C(O)C(Oc2ccc3c(O)c(NC(=O)c4ccc(O)c(CC=C(C)C)c4)c(=O)oc3c2C)OC1(C)C :: 83.2

Value source: PubChem BioAssay AID1963853
